Each recorded value in this set is attributed to ChEMBL document CHEMBL5291721.

# AC50 measurements, system: D(1A) dopamine receptor (Homo sapiens); note: assay procedure not described here
# Sequence (P21728 whole entry): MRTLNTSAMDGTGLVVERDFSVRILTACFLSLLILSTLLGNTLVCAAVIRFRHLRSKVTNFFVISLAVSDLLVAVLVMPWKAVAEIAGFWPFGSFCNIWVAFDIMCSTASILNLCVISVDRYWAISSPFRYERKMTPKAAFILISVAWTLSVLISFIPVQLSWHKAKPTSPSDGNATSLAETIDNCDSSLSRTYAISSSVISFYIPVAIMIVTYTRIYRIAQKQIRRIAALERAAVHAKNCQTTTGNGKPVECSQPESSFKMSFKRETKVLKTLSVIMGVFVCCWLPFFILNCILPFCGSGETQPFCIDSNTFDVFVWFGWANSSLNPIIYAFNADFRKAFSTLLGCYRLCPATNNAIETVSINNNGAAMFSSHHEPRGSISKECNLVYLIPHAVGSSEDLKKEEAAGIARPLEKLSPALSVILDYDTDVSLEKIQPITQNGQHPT

For orientation, consider the following solved cases.
CN1CCN(C2=Nc3ccccc3Oc3ccc(Cl)cc32)CC1 : 0.102 µM
CCCN(CCC)C(=O)Cc1c(-c2ccc(Cl)cc2)nc2ccc(Cl)cn12 : > 10 µM
COc1ccccc1Oc1c(NS(=O)(=O)c2ccc(C(C)(C)C)cc2)nc(-c2ncccn2)nc1OCCO : > 10 µM
CCC[C@H](NC(=O)[C@@H]1[C@H]2CCC[C@H]2CN1C(=O)[C@@H](NC(=O)[C@@H](NC(=O)c1cnccn1)C1CCCCC1)C(C)(C)C)C(=O)C(=O)NC1CC1 : > 10 µM
OCc1cc(C(O)CNCCCCCCOCCCCc2ccccc2)ccc1O (stereo not drawn) : > 10 µM
N[C@@H](CC(=O)N1CCn2c(nnc2C(F)(F)F)C1)Cc1cc(F)c(F)cc1F : > 10 µM
Nc1ccc(S(=O)(=O)Nc2nccs2)cc1 : > 10 µM

Continue with the compound presented below.
I'd like to know its AC50. The compound in question is CC(CCc1ccc(O)cc1)NCCc1ccc(O)c(O)c1 (stereo not drawn)
> 10 µM

---

system: Muscarinic acetylcholine receptor M2 (Homo sapiens); note: assay procedure not described here
Sequence (P08172 whole entry): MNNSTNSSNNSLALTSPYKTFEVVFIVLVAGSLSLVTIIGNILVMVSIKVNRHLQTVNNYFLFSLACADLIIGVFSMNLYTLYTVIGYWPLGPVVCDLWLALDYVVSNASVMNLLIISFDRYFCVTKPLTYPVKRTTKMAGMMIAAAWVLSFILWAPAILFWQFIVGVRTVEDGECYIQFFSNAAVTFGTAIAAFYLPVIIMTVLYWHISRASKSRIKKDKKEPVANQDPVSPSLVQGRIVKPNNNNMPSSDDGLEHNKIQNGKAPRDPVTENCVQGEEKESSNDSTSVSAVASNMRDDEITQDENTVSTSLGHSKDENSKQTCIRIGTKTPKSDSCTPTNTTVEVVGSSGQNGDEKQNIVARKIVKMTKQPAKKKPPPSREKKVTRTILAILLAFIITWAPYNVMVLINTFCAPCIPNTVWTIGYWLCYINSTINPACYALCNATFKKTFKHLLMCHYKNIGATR
Assay type: functional, cell-based
measured-quantity: AC50

For orientation, consider the following solved cases.
Cc1ncc2n1-c1ccc(Cl)cc1C(c1ccccc1F)=NC2 : > 10 µM
O=C1CCc2cc(OCCCCc3nnnn3C3CCCCC3)ccc2N1 : > 30 µM
OC[C@H]1O[C@@](CO)(O[C@H]2O[C@H](CO)[C@@H](O)[C@H](O)[C@H]2O)[C@@H](O)[C@@H]1O : > 30 µM
CC(N)C(O)c1ccccc1 (stereo not given) : > 10 µM

Continue with the compound presented below.
I'd like to know its AC50. The compound in question is `CCCN(CCC)C(=O)Cc1c(-c2ccc(Cl)cc2)nc2ccc(Cl)cn12`
> 30 µM

---

Below is a list of entries, each paired with its recorded AC50 value.
system: UniProtKB P21731
Sequence (P21731 whole entry): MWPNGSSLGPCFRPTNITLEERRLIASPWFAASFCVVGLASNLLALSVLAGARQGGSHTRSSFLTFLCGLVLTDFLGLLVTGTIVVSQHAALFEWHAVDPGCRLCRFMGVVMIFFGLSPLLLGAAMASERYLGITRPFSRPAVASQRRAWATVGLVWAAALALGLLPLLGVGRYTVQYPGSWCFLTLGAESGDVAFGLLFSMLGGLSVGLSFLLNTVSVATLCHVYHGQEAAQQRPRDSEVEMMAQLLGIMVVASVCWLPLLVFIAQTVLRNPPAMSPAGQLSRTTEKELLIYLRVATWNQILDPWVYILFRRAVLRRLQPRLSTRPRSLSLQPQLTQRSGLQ
Assay type: functional, cell-based

NCC(CC(=O)O)c1ccccc1 (centres undefined) [PHENIBUT] : > 30 µM

Entry CCN(CCCc1ccccc1)CCCc1ccccc1 [ALVERINE] , system UniProtKB P21731: what AC50 was measured?
> 30 µM

Entry CC(CCc1ccccc1)NCC(O)c1ccc(O)c(C(N)=O)c1 (centres undefined) [LABETALOL] , system UniProtKB P21731: what AC50 was measured?
> 30 µM

Entry CC(=O)Oc1cc(C(F)(F)F)ccc1C(=O)O [TRIFLUSAL] , system UniProtKB P21731: what AC50 was measured?
> 30 µM

Entry COc1cc(N2CCC(N3CCN(C)CC3)CC2)ccc1Nc1ncc(Cl)c(Nc2ccccc2P(C)(C)=O)n1 [BRIGATINIB] , system UniProtKB P21731: what AC50 was measured?
> 30 µM

Entry O=C(O)CO [GLYCOLIC ACID] , system UniProtKB P21731: what AC50 was measured?
> 30 µM

Entry C[C@H]1O[C@@H](n2cc(F)c(=O)[nH]c2=O)[C@H](O)[C@@H]1O [DOXIFLURIDINE] , system UniProtKB P21731: what AC50 was measured?
> 30 µM

Entry CCN(CC)C(=S)S [DITIOCARB] , system UniProtKB P21731: what AC50 was measured?
> 1 µM

Entry COc1ccc(CN(CCN(C)C)c2ccccn2)cc1 [PYRILAMINE] , system UniProtKB P21731: what AC50 was measured?
> 30 µM

Entry C[N+](C)(C)C[C@H](O)CC(=O)[O-] [LEVOCARNITINE] , system UniProtKB P21731: what AC50 was measured?
> 30 µM

Entry NC(=O)OCC(O)COc1ccc(Cl)cc1 (centres undefined) [CHLORPHENESIN CARBAMATE] , system UniProtKB P21731: what AC50 was measured?
> 30 µM

Entry C=CCN1CC[C@]23CCCC[C@H]2[C@H]1Cc1ccc(O)cc13 [LEVALLORPHAN] , system UniProtKB P21731: what AC50 was measured?
> 30 µM
